test: Intrinsic clearance in human intestinal microsomes assessed CYP450-mediated glucuronidation clearance; details: microsomes
recorded_metric: microsomal CLint (µL/min/mg)
Use µL/min/mg as the unit, but write only the number.

The molecule listed as Cc1ncc2n1-c1ccc(Cl)cc1C(c1ccccc1F)=NC2 [MIDAZOLAM] shows microsomal CLint equal to 153

* * *

experiment: Intrinsic clearance in human intestinal microsomes assessed UGT-mediated glucuronidation clearance; details: intestinal microsomes
recorded_metric: log10 of microsomal CLint (log10 of the value in µL/min/mg)
All values: base-10 log of microsomal CLint in µL/min/mg.

compound	meas_value
CCc1cccc2c3c([nH]c12)C(CC)(CC(=O)O)OCC3 (configuration not stated)	0.79
COc1ccc2c(c1)c(CC(=O)O)c(C)n2C(=O)c1ccc(Cl)cc1	0.62
CCCc1nc2c(C)cc(-c3nc4ccccc4n3C)cc2n1Cc1ccc(-c2ccccc2C(=O)O)cc1	1.30

The compound listed as Cc1c(Cl)cccc1Nc1ccccc1C(=O)O shows log10 of microsomal CLint equal to 2.19

The compound listed as O=c1c(O)c(-c2ccc(O)c(O)c2)oc2cc(O)cc(O)c12 shows log10 of microsomal CLint equal to 3.66

The compound listed as CCN(CC)C(=O)/C(C#N)=C/c1cc(O)c(O)c([N+](=O)[O-])c1 shows log10 of microsomal CLint equal to 1.43

The compound listed as Cc1ccc(C(=O)c2cc(O)c(O)c([N+](=O)[O-])c2)cc1 shows log10 of microsomal CLint equal to 1.60

* * *

test: Unbound fraction during CYP4500-mediated metabolism in human intestinal microsomes
recorded_metric: fraction unbound
The reply should be a number, written without any unit.

The compound listed as O=C(c1ccc(OCCN2CCCCC2)cc1)c1c(-c2ccc(O)cc2)sc2cc(O)ccc12 [RALOXIFENE] shows fraction unbound equal to 0.43

* * *

experiment: clinical; conditions: human, in vivo
recorded_metric: CL renal (mL/min/kg)
Use mL/min/kg as the unit, but write only the number.

The molecule listed as COc1ccc2c(c1)c(CC(=O)O)c(C)n2C(=O)c1ccc(Cl)cc1 shows CL renal equal to 0.21

* * *

assay: Intrinsic clearance in human intestinal microsomes assessed CYP450-mediated glucuronidation clearance; conditions: intestinal microsomes
recorded_metric: microsomal CLint (µL/min/mg)
Use µL/min/mg as the unit, but write only the number.

The compound listed as O=C(c1ccc(OCCN2CCCCC2)cc1)c1c(-c2ccc(O)cc2)sc2cc(O)ccc12 shows microsomal CLint equal to 8.9

* * *

assay: clinical; conditions: human, in vivo, po
recorded_metric: CL/F (mL/min/kg)
Use mL/min/kg as the unit, but write only the number.

compound	recorded_metric	meas_value
CCc1cccc2c3c([nH]c12)C(CC)(CC(=O)O)OCC3 (configuration not stated)	CL/F	0.82

Now for another entry.
The compound listed as O=c1c(O)c(-c2ccc(O)c(O)c2)oc2cc(O)cc(O)c12 shows CL/F equal to 8330

* * *

assay: Unbound intrinsic clearance in human intestinal microsomes assessed UGT-mediated glucuronidation clearance
Decision: CL free beneath 60 µL/min/mg gives Condition met; CL free meeting or exceeding 60 µL/min/mg gives Condition not met.

Known results for compounds:
compound	group_label
CCCc1nc2c(C)cc(-c3nc4ccccc4n3C)cc2n1Cc1ccc(-c2ccccc2C(=O)O)cc1	Condition met
Cc1ccc(C(=O)c2cc(O)c(O)c([N+](=O)[O-])c2)cc1 [TOLCAPONE]	Condition not met
O=C(O)Cc1ccccc1Nc1c(Cl)cccc1Cl [DICLOFENAC]	Condition not met
Cc1c(Cl)cccc1Nc1ccccc1C(=O)O [TOLFENAMIC ACID]	Condition not met

// query State whether 60 µL/min/mg exceeds CL free recorded for CCN(CC)C(=O)/C(C#N)=C/c1cc(O)c(O)c([N+](=O)[O-])c1 [ENTACAPONE] .
// result Condition met

* * *

assay: Intrinsic clearance in human intestinal microsomes assessed UGT-mediated glucuronidation clearance; conditions: microsomes
Overview of recorded microsomal CLint for various compounds
Use µL/min/mg as the unit, but write only the number.

cpd_smiles	measurement_unit	microsomal CLint
Cc1ccc(C)c(OCCCC(C)(C)C(=O)O)c1	µL/min/mg	17

Now for another entry.
The compound listed as O=C(O)Cc1ccccc1Nc1c(Cl)cccc1Cl shows microsomal CLint equal to 59

* * *

test: Apparent permeability by PAMPA method
Overview of recorded Papp for various compounds

# annotated cases, reported Papp shown
compound	Papp
CCN(CC)C(=O)/C(C#N)=C/c1cc(O)c(O)c([N+](=O)[O-])c1	4.1 ×10⁻⁶ cm/s
Cc1c(-c2ccc(O)cc2)n(Cc2ccc(OCCN3CCCCCC3)cc2)c2ccc(O)cc12	20 ×10⁻⁶ cm/s

The compound listed as Cc1ccc(C(=O)c2cc(O)c(O)c([N+](=O)[O-])c2)cc1 shows Papp equal to 18 ×10⁻⁶ cm/s

The compound listed as Cc1c(Cl)cccc1Nc1ccccc1C(=O)O shows Papp equal to 14 ×10⁻⁶ cm/s

The compound listed as Cc1ccc(C)c(OCCCC(C)(C)C(=O)O)c1 shows Papp equal to < 0.1 ×10⁻⁶ cm/s

The compound listed as O=c1c(O)c(-c2ccc(O)c(O)c2)oc2cc(O)cc(O)c12 shows Papp equal to < 1.5 ×10⁻⁶ cm/s

The compound listed as CCCc1nc2c(C)cc(-c3nc4ccccc4n3C)cc2n1Cc1ccc(-c2ccccc2C(=O)O)cc1 shows Papp equal to > 30 ×10⁻⁶ cm/s

The compound listed as COc1ccc2c(c1)c(CC(=O)O)c(C)n2C(=O)c1ccc(Cl)cc1 shows Papp equal to 22 ×10⁻⁶ cm/s

The compound listed as O=C(c1ccc(OCCN2CCCCC2)cc1)c1c(-c2ccc(O)cc2)sc2cc(O)ccc12 shows Papp equal to 3 ×10⁻⁶ cm/s

The compound listed as CCc1cccc2c3c([nH]c12)C(CC)(CC(=O)O)OCC3 (stereo not given) shows Papp equal to 23 ×10⁻⁶ cm/s

* * *

assay: clinical; settings: human, in vivo
Overview of recorded clearance for various compounds
Use mL/min/kg as the unit, but write only the number.

# annotated cases, reported clearance shown
compound	recorded_metric	meas_value
CCc1cccc2c3c([nH]c12)C(CC)(CC(=O)O)OCC3 (stereo not drawn)	clearance	0.66
COc1ccc2c(c1)c(CC(=O)O)c(C)n2C(=O)c1ccc(Cl)cc1	clearance	1.4

The compound listed as Cc1c(Cl)cccc1Nc1ccccc1C(=O)O shows clearance equal to 2.2

* * *

assay: Unbound intrinsic clearance in human intestinal microsomes assessed UGT-mediated glucuronidation clearance
Overview of recorded CL free for various compounds
Use µL/min/mg as the unit, but write only the number.

The compound listed as COc1ccc2c(c1)c(CC(=O)O)c(C)n2C(=O)c1ccc(Cl)cc1 shows CL free equal to 5.2

* * *

Overview of recorded fraction unbound for various compounds
assay: Unbound fraction during UGT-mediated glucuronidation in human intestinal microsomes; settings: intestinal microsomes
The reply should be a number, written without any unit.

cpd_smiles	recorded_metric	meas_value
Cc1ccc(C(=O)c2cc(O)c(O)c([N+](=O)[O-])c2)cc1	fraction unbound	0.39

The compound listed as O=C(c1ccc(OCCN2CCCCC2)cc1)c1c(-c2ccc(O)cc2)sc2cc(O)ccc12 shows fraction unbound equal to 0.98

The compound listed as O=c1c(O)c(-c2ccc(O)c(O)c2)oc2cc(O)cc(O)c12 shows fraction unbound equal to 0.9

The compound listed as CCN(CC)C(=O)/C(C#N)=C/c1cc(O)c(O)c([N+](=O)[O-])c1 shows fraction unbound equal to 1

The compound listed as Cc1c(Cl)cccc1Nc1ccccc1C(=O)O shows fraction unbound equal to 0.88

* * *

test: Bioavailability in human; format: ADME, organism-based; settings: in vivo
recorded_metric: bioavailability
Please state the number and follow it with the unit.

The compound listed as Cc1ccc(C)c(OCCCC(C)(C)C(=O)O)c1 shows bioavailability equal to 100%

* * *

experiment: in vitro; conditions: human, blood and plasma
Description: Ratio of drug level in blood to plasma in human
recorded_metric: blood plasma ratio
The reply should be a number, written without any unit.

# annotated cases, reported blood plasma ratio shown
compound	meas_value
CCc1cccc2c3c([nH]c12)C(CC)(CC(=O)O)OCC3 (stereo not drawn) [ETODOLAC]	0.55
O=c1c(O)c(-c2ccc(O)c(O)c2)oc2cc(O)cc(O)c12 [QUERCETIN]	1
CCCc1nc2c(C)cc(-c3nc4ccccc4n3C)cc2n1Cc1ccc(-c2ccccc2C(=O)O)cc1	0.67
Cc1c(Cl)cccc1Nc1ccccc1C(=O)O [TOLFENAMIC ACID]	0.66

The compound listed as COc1ccc2c(c1)c(CC(=O)O)c(C)n2C(=O)c1ccc(Cl)cc1 [INDOMETHACIN] shows blood plasma ratio equal to 0.55

The compound listed as CCN(CC)C(=O)/C(C#N)=C/c1cc(O)c(O)c([N+](=O)[O-])c1 [ENTACAPONE] shows blood plasma ratio equal to 0.59

The compound listed as Cc1ccc(C)c(OCCCC(C)(C)C(=O)O)c1 [GEMFIBROZIL] shows blood plasma ratio equal to 0.58

The compound listed as Cc1ccc(C(=O)c2cc(O)c(O)c([N+](=O)[O-])c2)cc1 [TOLCAPONE] shows blood plasma ratio equal to 0.61
